# Tested On: T1, NativeRPtag(large)_with_Tags_and_Cys (Thermoanaerobacter tengcongensis)
# T1 chain: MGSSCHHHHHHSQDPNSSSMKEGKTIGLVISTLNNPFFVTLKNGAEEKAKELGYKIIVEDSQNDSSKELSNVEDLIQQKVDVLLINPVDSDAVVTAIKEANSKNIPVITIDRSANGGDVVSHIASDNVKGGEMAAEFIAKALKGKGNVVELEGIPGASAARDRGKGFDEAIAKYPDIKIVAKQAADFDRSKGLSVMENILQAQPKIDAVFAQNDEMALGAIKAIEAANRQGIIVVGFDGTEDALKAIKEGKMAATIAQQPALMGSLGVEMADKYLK
# Assay Explanation: fluorescence anisotropy; MnSO4 (10 mM)
Measured Metric: pKd
Answers are plain numbers, as −log10 of the molar value.

Recorded pKd (binder PAELKLITK (modifications not checked) [RPtag(small) Nd8, Cd4] ): 6.80

Sourced from patent US20200102347A1
